Molecular target: Calmodulin-1 (Homo sapiens) (UniProt P0DP23)
Experiment: CALM1 binders on microarrays, EGTA buffer, profiling panel, biochemical, small-molecule microarray, Cy5-labelled CALM1 (AID 1111);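 further: labelled calmodulin applied in Tris saline Tween buffer holding calcium plus EGTA and DTT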
Conditions: Cy5-CALM1 binding fluorescence, higher = more signal
Measured Property: composite z-score

Check out these entries, answers already filled in.
CC(=O)NCCCC[C@@H]1NC(=O)[C@H]2C[C@@H](C(=O)NCCCCCN)[C@@H](c3ccc(O)cc3)N2C1=O: 0.536
COc1ccc([Si](C)(C)[C@@H]2[C@@H](CC(=O)N(CCO)Cc3ccccc3)O[C@]3(C(=O)N(Cc4cccc(I)c4)c4ccccc43)[C@H]2C)cc1: 2.83
C=CCNC(=O)[C@H]1[C@@H]2C(=O)O[C@@H](c3ccccc3)[C@@H](c3ccccc3)N2[C@@H](c2ccc(OCCO)cc2)[C@]12C(=O)N(C(=O)OCCOC)c1ccc(C#CCNC(N)=O)cc12: 1.17
Cc1ccc(S(=O)(=O)N2[C@@H](c3ccccc3)C(C(=O)O)=CC[C@H]2c2ccc(F)cc2)cc1: -0.599
COC(=O)[C@H]1N=C(c2ccc(OCCCO)cc2)O[C@H]1c1ccccc1N=[N+]=[N-]: 0.203
COC(=O)[C@@]1(Cc2ccc(OC)cc2)[C@H]2c3cc(C(=O)N(C)C)n(Cc4c(CO)[nH]cc(C)c4=O)c3C[C@H]2CN1C(=O)c1ccccc1: 1.1

Now look at this one.
# composite z-score (molecule: C=CC[C@]1(C(=O)NCC(O)CO)N=C(c2ccc(OCCCO)cc2)O[C@H]1c1ccccc1CN=[N+]=[N-] (stereo partly drawn) ) is 1.34

====

System: Fibrinogen (Alexa647-labelled)
Experiment: fibrinogen binders on compound microarrays, profiling panel, artefact control for SMM control-protein annotation, biochemical, small-molecule microarray, 635/667 nm fluorescence (AID 1131);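 further: z-score merges 667 nm fluorescence with per-spot signal-to-noise over triplicate slides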
Conditions: fibrinogen-A647 binding fluorescence, higher = more signal
Measured Property: composite z-score
# answer = number (no unit)

Check out these entries, answers already filled in.
CCCCC(=C=CC[C@H](O)c1ccccc1OCCO)CCO: -0.472
C=C(CCCC)/C(=C/C[C@@H](OC(C)=O)c1ccc(OCCO)cc1)c1cc(C(=O)OC)ccc1OC: -0.156
CCCCC(=C=CC[C@@H](O)c1ccccc1OCCO)C[C@@H](O)c1ccccn1: 0.296
O=C1c2ccccc2[C@](Cc2ccccc2I)(C(=O)NCCN2CCOCC2)[C@H](c2ccc(CO)cc2)N1Cc1ccccc1C(F)(F)F: 0.88
COc1ccc([Si](C)(C)[C@H]2[C@H](CC(=O)N(CCO)Cc3ccccc3)O[C@@]3(C(=O)N(c4ccccc4)c4ccccc43)[C@@H]2C)cc1: 0.743

# composite z-score (compound: COCCOC(=O)N1C(=O)[C@@]2(c3ccccc31)[C@H](C(=O)Nc1nc3ccccc3s1)[C@H]1C(=O)O[C@H](c3ccccc3)[C@H](c3ccccc3)N1[C@@H]2c1ccccc1OCCO ) is 0.941

====

Tested on: PRMT1 (protein arginine N-methyltransferase 1)
Assay: PRMT1 binders on small-molecule microarrays, primary screen, biochemical, small-molecule microarray, 635 nm fluorescence (AID 1088);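 further: binding of Prmt1 protein to compounds spotted on small-molecule microarray slides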
Conditions: small-molecule microarray binding, higher = more signal
Measured Property: composite z-score
# answer = number (no unit)

Check out these entries, answers already filled in.
COC(=O)C(CC#Cc1ccc2c(c1)[C@]1(C(=O)N2)[C@H](C(=O)NC[C@H](O)c2ccccc2)[C@H]2C(=O)O[C@H](c3ccccc3)[C@H](c3ccccc3)N2[C@@H]1c1ccc(O)cc1)C(=O)OC: 0.356
COc1ccc(-c2cc3c(c(CCc4ccccc4)n2)[Si](C(C)C)(C(C)C)O[C@H]3c2ccccc2)cn1: 0.469
COC(=O)C(CC#Cc1ccc2c(c1)[C@]1(C(=O)N2)[C@H](C(=O)N2CCCCCCC2)[C@H]2C(=O)O[C@H](c3ccccc3)[C@H](c3ccccc3)N2[C@@H]1c1ccc(OCCO)cc1)C(=O)OC: 1.52
C=CCC(OC(C)=O)[C@@H]1[C@@H](N(Cc2ccc(-c3ccccc3)cc2)C(=O)Cc2ccc(OC)cc2)c2cc(OCCCO)ccc2N1C(=O)Cc1ccc(OC)cc1 (some centres not stated): 0.622
N#Cc1ccc(NN2C(C(O)c3ccc(B(O)O)cc3)C=CC3CN(c4ccccc4)C(=O)C32)cc1 (configuration not stated): -0.188

# composite z-score (compound: C=CC[C@@]1(C(=O)NCCCOC)N=C(c2ccc(OCCCO)cc2)O[C@@H]1c1ccccc1CN=[N+]=[N-] ) is 1.55

# composite z-score (compound: Cc1ccc(S[C@]2(C(=O)NC(C)C)CC(=O)N(Cc3ccccc3)[C@@H]2c2ccc(CO)cc2)cc1 ) is -0.251

# composite z-score (compound: COC(=O)C1=CC(CCCO)=CC(c2ccc(CN3CCCC3)cc2)N(C)C=C1C(=O)OC (configuration not stated) ) is 0.853

# composite z-score (compound: CCOC(=O)C1=CC[C@@H](c2ccccc2)N(S(=O)(=O)c2ccc(C)cc2)[C@@H]1C#N ) is 0.712

# composite z-score (compound: O=C1NC(=O)C2C1C=CC(C(O)C(c1ccccc1)c1ccccc1)N2Nc1ccccn1 (configuration not stated) ) is 0.72

# composite z-score (compound: CC[C@@H](O[Si](C#C[Si](C(C)C)(C(C)C)C(C)C)(C(C)C)C(C)C)c1cn([C@H](C)c2ccccc2)nn1 ) is 0.991

# composite z-score (compound: CCCCC=C[C@@H](NC(=O)C(C)(C)C)c1ccccc1 ) is 0.956

# composite z-score (compound: CC[C@@H]1C=C(C(=O)O)[C@H](c2cccc(Cl)c2)N1S(=O)(=O)c1ccc(C)cc1 ) is 0.877
